system: M-MOK; assay: cells
assayReadout: IC50 (nM)
One number for each entry, in nM.

Q: Using the record for N#CC[C@H](C1CCCC1)n1cc(-c2ncnc3[nH]ccc23)cn1 [Ruxolitinib, ruxolitinib] , report its IC50.
A: 6.4

----------
tested on: U937; set-up: species or system AML cell lines (8); Primary HTS, single concentration about 10 uM, Cell Titer Glo viability; log10 luminescence, per cent inhibition relative to cycloheximide control; details: 72 h, relative to cycloheximide control, log10 luminescence; inhibitor
Where a name gives a salt, the structure may show the parent alone.
assayReadout: U937 %inh (%)
One number for each entry, in %.

• Cn1cc(C2=C(c3c4n(c5ccccc35)CCNC4)C(=O)NC2=O)c2ccccc21 [SJ000581080-1] = 18.44
• CC(=O)N[C@@H](Cc1ccc(OP(=O)(O)O)cc1)C(=O)N[C@H]1CCC(=O)N2CCC[C@@H](C(=O)NCc3ccccc3)N2C1=O [SJ000581025-1] = 0.2421
• CCCN1CCC=C(c2ccc(Nc3nc(Nc4ccccc4C(N)=O)c4cc[nH]c4n3)c(C)c2)C1 [SJ000573273-1, U22972/6/1] = 14.36

Would you be so kind as to report U937 %inh for each listed record?
1. CCCCc1ncc(/C=C(\Cc2cccs2)C(=O)O)n1Cc1ccc(C(=O)O)cc1 [SJ000556755-1, EPROSARTAN MESYLATE]
2. Fc1ccc(-c2cc(-c3c[nH]nc3-c3ccccn3)ccn2)cc1 [SJ000573276-1, FCJB/213/107/1]
3. N#Cc1cnc2cnc(NCc3cccnc3)cc2c1Nc1ccc(F)c(Cl)c1 [SJ000773185-1, TPL2 KINASE INHIBITOR]
4. CN(C)CCNC(=O)Nc1ccc(N(C)c2ccnc(Nc3ccc(CS(C)(=O)=O)cc3)n2)cc1 [SJ000573239-1, U17983/95/3]

A:
1. 2.452
2. 16.91
3. 7.932
4. -1.201

----------
test system: CHRF288-11; design: species or system AML cell lines (8); Primary HTS, single concentration about 10 uM, Cell Titer Glo viability; log10 luminescence, per cent inhibition relative to cycloheximide control; settings: 72 h, relative to cycloheximide control, log10 luminescence; inhibitor
Hi there, I'd appreciate the recorded CHRF288-11 %inh for every entry that follows.

A selection of reference data follows.
* CCCCNC(=O)NS(=O)(=O)c1ccc(C)cc1 [SJ000285613-7, TOLBUTAMIDE] | -1.378%
* Cn1c(=O)c(Oc2ccccc2F)cc2cnc(NC3CCOCC3)nc21 [SJ000581061-1] | 11.16%
* COc1ccc(O)c(C(=O)c2ccc(C(=O)O[C@@H]3CCCNC[C@H]3NC(=O)c3ccncc3)cc2)c1F [SJ000580951-1] | 109.9%

Q: Using the record for O=S(=O)(CCNCc1ccc(-c2ccc3ncnc(Nc4ccc(OCc5cccc(F)c5)c(Cl)c4)c3c2)o1)c1ccccc1 [SJ000573010-1, U15277/78/1] , report its CHRF288-11 %inh.
A: -1.699%

----------
tested on: CHRF288-11; parameters: species or system AML cell lines (8); Primary HTS, single concentration about 10 uM, Cell Titer Glo viability; log10 luminescence, per cent inhibition relative to cycloheximide control; details: 72 h, relative to cycloheximide control, log10 luminescence; inhibitor
assayReadout: CHRF288-11 %inh (%)
Answers are plain numbers, in %.

A selection of reference data follows.
- NCc1ccc(-c2nc(-c3ccc(Cl)c(O)c3)c(-c3ccncc3)[nH]2)cc1: -2.078
- CN(C)CCOc1ccc(-c2nc(-c3ccncc3)c(-c3ccc4c(c3)CC/C4=N\O)[nH]2)cc1: 9.844
- CCCCCNC(=O)[C@@H]1CCCN2C(=O)CC[C@H](NC(=O)[C@H](Cc3ccc(OP(=O)(O)O)cc3)NC(C)=O)C(=O)N12: -2.344
- C[C@@H](Oc1cc(-n2cnc3ccc(OCC4CCN(C)CC4)cc32)sc1C(N)=O)c1ccccc1C(F)(F)F: 130.5

Would you be so kind as to report CHRF288-11 %inh for each listed record?
1. N#Cc1cccc(Nc2nccc(-c3cnn4ncccc34)n2)c1
2. COc1cccc(F)c1C(=O)c1cnc(NC2CCN(S(C)(=O)=O)CC2)nc1N
3. CSc1c(C2=C(c3cn(C)c4ccccc34)C(=O)NC2=O)c2ccccc2n1C
4. CC(C)c1ccc(-c2cc(-c3c[nH]nc3-c3ccccn3)ccn2)cc1

A:
1. 55.56
2. 12.21
3. 9.742
4. 9.433

Would you be so kind as to report CHRF288-11 %inh for each listed record?
1. CC(C)(C)c1cnc(CSc2cnc(NC(=O)C3CCNCC3)s2)o1
2. CS(=O)(=O)CCNCc1nc(-c2ccc3ncnc(Nc4ccc(F)c(Cl)c4)c3c2)cs1

A:
54.06
0.6669

----------
test: Pharmacokinetics of ruxolitinib, single oral dose, plasma LC-MS/MS; type: in vivo, mice; conditions: mouse, NSG, Female, 60 mg kg−1 oral gavage
assayReadout: half-life (h)
Answers are plain numbers, in h.

Q: Using the record for N#CC[C@H](C1CCCC1)n1cc(-c2ncnc3[nH]ccc23)cn1 , report its half-life.
A: 1.26

----------
Hi there, I'd appreciate the recorded M07e %inh for every entry that follows.
tested on: M07e; design: species or system AML cell lines (8); Primary HTS, single concentration about 10 uM, Cell Titer Glo viability; log10 luminescence, per cent inhibition relative to cycloheximide control; settings: 72 h, relative to cycloheximide control, log10 luminescence; inhibitor
// return the numeric value with its unit appended

A selection of reference data follows.
* Cn1cc(C2=C(Nc3ccccc3)C(=O)NC2=O)c2ccccc21 | -1.248%
* CNC(=O)[C@H](Cc1c[nH]c2ccccc12)NC(=O)[C@@H](CC(=O)NO)CC(C)C | -0.3296%
* CC(C)(c1ccc(OCC2CO2)cc1)c1ccc(OCC2CO2)cc1 (centres unmarked) | -0.5797%
* CC1=C(C(=O)Nc2ccc3[nH]nc(C)c3c2)C(c2ccc(C(F)(F)F)cc2)CC(=O)N1 (centres unmarked) | 28.71%
* COc1cc[nH]c1/C=C1\C(=O)Nc2ccccc21 | 0.1646%

Would you be so kind as to report M07e %inh for each listed record?
1. CCCCC1C(=O)N(c2ccccc2)N(c2ccc(O)cc2)C1=O (centres unmarked)
2. CCc1cccc(NC(=O)Nc2ccc(Oc3ccc4nc(NC(=O)OC)[nH]c4c3)cc2)c1
3. N=C1NC(=O)N2CC12 (centres unmarked) [SJ000564440-1, IMEXON]

A:
119.6%
0.5293%
3.11%

----------
Hi there, I'd appreciate the recorded M07e %inh for every entry that follows.
test system: M07e; parameters: species or system AML cell lines (8); Primary HTS, single concentration about 10 uM, Cell Titer Glo viability; log10 luminescence, per cent inhibition relative to cycloheximide control; conditions: 72 h, relative to cycloheximide control, log10 luminescence, inhibitor, M07e %inh, 10 µM
Numbers only, in %.

* COCCOC(=O)C1=C(C)NC(C)=C(C(=O)OC(C)C)C1c1cccc([N+](=O)[O-])c1 (centres unmarked) | -0.8371

Would you be so kind as to report M07e %inh for each listed record?
1. CNC(=O)[C@@H](NC(=O)[C@H](CC(C)C)[C@H](O)C(=O)NO)C(C)(C)C [SJ000772411-2]
2. COc1cc2c(cc1O)CC[C@@H]1[C@@H]2CC[C@]2(C)[C@@H](O)CC[C@@H]12
3. Nc1nccc(-c2c(-c3ccc(F)cc3)ncn2C2CCNCC2)n1 [SJ000573168-1, JB-19127-269D | LD19161-244A1]
4. C[C@H](CS)C(=O)N1CCC[C@H]1C(=O)O [SJ000286908-7, CAPTOPRIL]
5. C[C@H]1O[C@@H](O[C@H]2[C@@H](O)C[C@H](O[C@H]3[C@@H](O)C[C@H](O[C@H]4CC[C@@]5(C)[C@H](CC[C@@H]6[C@@H]5C[C@@H](O)[C@]5(C)[C@@H](C7=CC(=O)OC7)CC[C@]65O)C4)O[C@@H]3C)O[C@@H]2C)C[C@H](O)[C@@H]1O
6. Nc1ncnc2occ(-c3ccc(NC(=O)Nc4cc(C(F)(F)F)ccc4F)cc3)c12

A:
[4.087, 111, 19.95, 3.365, 102.6, 14.83]

----------
system: CHRF288-11; assay: Secondary dose-response HTS, Cell Titer Glo; assay type: cell-based, human; conditions: read-out: average effective concentration, CHRF288-11
assayReadout: pEC50
One number for each entry, as −log10 of the molar value.

Q: Using the record for Cc1ccc(C(=O)Nc2ccc(CN3CCN(C)CC3)c(C(F)(F)F)c2)cc1C#Cc1cnc2cccnn12 , report its pEC50.
A: 6.01

----------
system: ML-2; set-up: species or system AML cell lines (8); Primary HTS, single concentration about 10 uM, Cell Titer Glo viability; log10 luminescence, per cent inhibition relative to cycloheximide control; conditions: 72 h, relative to cycloheximide control, log10 luminescence; inhibitor
Hi there, I'd appreciate the recorded ML-2 %inh for every entry that follows.
Give bare numbers, in %.

A selection of reference data follows.
• CCCN(CCS(C)(=O)=O)Cc1ccc(-c2ccc3ncnc(Nc4ccc(OCc5cccc(F)c5)c(Cl)c4)c3c2)o1 = 1.001
• C[C@@H](Oc1cc(-n2cnc3ccc(OC[C@@H](O)CO)cc32)sc1C(N)=O)c1ccccc1Cl = 25.64
• C[C@@H](Oc1cc(-n2cnc3ccc(OCC4CCN(C)CC4)cc32)sc1C(N)=O)c1ccccc1C(F)(F)F = 59.84
• C[C@@H]1C[C@H]2[C@@H]3C[C@H](F)C4=CC(=O)C=C[C@]4(C)[C@@]3(F)[C@@H](O)C[C@]2(C)[C@@]1(OC(=O)c1ccco1)C(=O)SCF [SJ000556747-1, FLUTICASONE FUROATE] = 5.949

Would you be so kind as to report ML-2 %inh for each listed record?
1. CCn1cc(C(=O)O)c(=O)c2cc(F)c(N3CCNCC3)nc21
2. CC(CO)Nc1cc(-c2[nH]c3cccnc3c2-c2ccc(F)cc2)ccn1 (centres unmarked)
3. COc1cc(F)c(F)c(F)c1C(=O)c1cnc(NC2CCN(S(C)(=O)=O)CC2)nc1N
4. Nc1c(C(=O)c2cccc(CCS(N)(=O)=O)c2)cnn1-c1ccc(F)cc1
5. OC(Cn1cncn1)(Cn1cncn1)c1ccc(F)cc1F
6. CS(=O)(=O)CCc1cccc(C(=O)c2cnn(-c3ccc(F)cc3)c2N)c1

A:
1. 32.21
2. 3.05
3. 21.95
4. 1.884
5. -1.511
6. 0.2726

Would you be so kind as to report ML-2 %inh for each listed record?
1. O=S(=O)(CCNCc1ccc(-c2ccc3ncnc(Nc4ccc(OCc5cccc(F)c5)c(Cl)c4)c3c2)o1)c1ccccc1
2. C/C(=C\c1ccc(C(=O)O)cc1)c1ccc2c(c1)C(C)(C)CCC2(C)C
3. COc1ccc(-c2ccncc2)cc1C(N)=O
4. CCn1c(=O)c(Oc2ccc(F)cc2F)cc2cnc(NC3CCOCC3)nc21

A:
0.08634
2.308
2.021
-1.057
